Target Desc: Replicase polyprotein 1ab (Severe acute respiratory syndrome coronavirus)
Protocol Details: SARS-CoV PLpro inhibitor potency, dose response, counter-screen for SARS-CoV 3CLpro inhibitor project, biochemical, luminescence (AID 1944)
Condition Details: SARS-CoV PLpro enzymatic assay
Active and inactive are the calls of the source. How the calls were made is not given here.
Respond only with the outcome that fits, drawn from true (1) = active, false (0) = inactive

Before answering, review these 2 worked examples.
>>> class("COc1ccc(C2C(O)C(c3c[nH]c4ccccc34)=NN2C(=O)CCl)cc1 (stereo unspecified)")
"false (0)"
>>> class("Cn1nc(-c2ccc(Cl)cc2)nc2c(=O)n(C)c(=O)nc1-2")
"true (1)"

Read the next record carefully.
Prompt line: What outcome does the record of this test show for O=C(/C=C/c1c(F)cccc1Cl)Nc1cccnc1 ?
Response line: true (1)

====

Target Desc: Replicase polyprotein 1ab (Severe acute respiratory syndrome coronavirus)
Protocol Details: SARS-CoV PLpro inhibitor potency, dose response, counter-screen for SARS-CoV 3CLpro inhibitor project, biochemical, luminescence (AID 1944)
Condition Details: SARS-CoV PLpro enzymatic assay
Active and inactive are the calls of the source. How the calls were made is not given here.
Respond only with the outcome that fits, drawn from active, inactive

Before answering, review these 5 worked examples.
>>> class("Cc1ccc(C(=O)n2cnc3ccccc32)cc1C")
"active"
>>> class("Cc1nnc(SC(=O)N2c3ccccc3Sc3ccccc32)s1")
"inactive"
>>> class("CCN(CC)C(=O)Cn1cc(/C=C2\\C(=O)NC(=O)N(c3ccccc3F)C2=O)c2ccccc21")
"inactive"
>>> class("Nc1ncc(Br)cc1S(=O)(=O)Nc1cc(C(F)(F)F)cc(C(F)(F)F)c1")
"inactive"
>>> class("O=C1NC(=O)N(c2ccccc2F)C(=O)/C1=C/c1cn(CC(=O)N2CCOCC2)c2ccccc12")
"inactive"

Prompt line: What outcome does the record of this test show for COc1ccc(N(Cc2cc(=O)[nH]c3ccccc23)C(=O)CCl)cc1 ?
Response line: inactive

Prompt line: Same question for O=C(/C=C/c1cccs1)Nc1scc(-c2ccccc2)c1C(=O)O please.
Response line: active

Prompt line: Same question for COC(=O)c1ccc(OC(=O)CN2C(=O)c3ccccc3C2=O)cc1 please.
Response line: inactive

Prompt line: Same question for CC(=O)c1c(OC(=O)c2ccco2)c2ccccc2n1C please.
Response line: inactive

====

Target Desc: Replicase polyprotein 1ab (Severe acute respiratory syndrome coronavirus) (UniProt P0C6X7)
Protocol Details: SARS-CoV PLpro inhibitor potency, dose response, counter-screen for SARS-CoV 3CLpro inhibitor project, biochemical, luminescence (AID 1944)
Condition Details: SARS-CoV PLpro enzymatic assay
Active and inactive are the calls of the source. How the calls were made is not given here.
Reported Metric: IC50

>>> meas_value("CC1(C)C2CC=C(/C=N/NC(=S)Nc3cccnc3)C1C2 (stereo not given)")
"> 59.6 µM (inactive)"
>>> meas_value("Cc1cc(=O)oc2cc(NC(=O)Cc3ccccc3[N+](=O)[O-])ccc12")
"> 59.6 µM (inactive)"
>>> meas_value("O=C(NCc1ccco1)C(c1ccco1)N(C(=O)Cn1nnc2ccccc21)c1ccc2c(c1)CCC2 (stereo not given)")
"> 59.6 µM (inactive)"
>>> meas_value("O=C(O)c1[nH]c2ccccc2c1C(c1cc(Br)ccc1O)c1c(C(=O)O)[nH]c2ccccc12")
"9.17 µM"
>>> meas_value("Cc1cc(C)c(C)c(S(=O)(=O)N2CCN(C(=O)c3cc(=O)[nH]c4ccccc34)CC2)c1C")
"> 59.6 µM (inactive)"

Prompt line: Look up IC50: O=C(O)COc1ccc(Br)cc1C(c1c(C(=O)O)[nH]c2ccccc12)c1c(C(=O)O)[nH]c2ccccc12
Response line: inactive

Prompt line: Same question for O=C(Cn1nnc2ccccc21)c1ccc(Br)cc1 please.
Response line: 2.3 µM

Prompt line: Same question for O=C(Cn1nnc2ccccc21)c1ccc(Cl)cc1 please.
Response line: 3.97 µM

Prompt line: Same question for CC(=O)c1cc(-c2ccccc2)[nH]c1N1CCCC1 please.
Response line: inactive

Prompt line: Same question for O=C(Oc1ccc(Br)cc1C(=O)/C=C/c1ccccc1F)c1ccco1 please.
Response line: > 59.6 µM (inactive)

Prompt line: Same question for O=C(c1cc(=O)[nH]c2ccccc12)N1CCN(c2cccc(C(F)(F)F)c2)CC1 please.
Response line: > 59.6 µM (inactive)

Prompt line: Same question for COc1ccc(C(C(=O)NCC2CCCO2)N(C(=O)Cn2nnc3ccccc32)c2ccc(NC(C)=O)cc2)cc1 (stereo not given) please.
Response line: > 59.6 µM (inactive)

Prompt line: Same question for Cc1ccc(C(=O)O)cc1NC(=S)NC(=O)c1ccc(COc2ccccc2)cc1 please.
Response line: 2.48 µM

Prompt line: Same question for O=C(/C=C/c1ccccc1Cl)Nc1cccnc1 please.
Response line: 0.0388 µM

Prompt line: Same question for CC(C)C12CN(C(=O)c3ccccc3[N+](=O)[O-])CC(C(C)C)(CN(C(=O)c3ccccc3[N+](=O)[O-])C1)C2=O please.
Response line: > 59.6 µM (inactive)
